Recorded pIC50 values for a group of molecules are listed next.
- Test system: OVCAR-3
- assay notes: Cellular OVCAR-3 viability assay (CellTiter-Glo, 72 hours)
- Format: cell-based
- stated conditions: Homo sapiens
- Description: Human T-cell acute lymphoblastic leukemia cell line, MOLT-4 (ATCC, Cat #CRL-1582), Human multiple myeloma cell line, RPMI-8226 (Invitrogen, Cat #22400-089) and MM.1S (ATCC, Cat #CRL-2974), NSCLC (Non-small cell lung cancer) cell line H460 (ATCC, Cat #HTB-177), Human colon colorectal carcinoma cell line HCT116 (ATCC, Cat #CCL-247), Human acute monocytic leukemia cell line MV4-11 (ATCC, Cat #CRL-9591), OVCAR-3 (ATCC, Cat #HTB-161) and A2780 (ECACC, Cat #93112519) were obtained from ATCC. […]
pIC50: −log10 of the molar value.

# annotated cases, reported pIC50 shown
Identify the reported pIC50 for the following entry. CC(C)c1cnn2c(NCc3c(Cl)cccc3-n3ccc(C(C)(C)O)n3)nc(Nc3cc[nH]c3)nc12
< 5.00

Provide one value: measured pIC50 of CC(C)c1cnn2c(NCc3c(Cl)cccc3-c3cc4ccccc4[nH]3)nc(N3CCC(N)CC3)nc12
5.00 to 6.00

Check the records and state pIC50 for CC(C)c1cnn2c(NCc3ccccc3-c3ccc4ccccc4n3)nc(N3CCC(O)(CN)CC3)nc12
5.00 to 6.00

New cases:
Supply measured pIC50 of CC(C)c1cnn2c(NCc3ccccc3-c3ccc4ccccc4n3)nc(N[C@H]3CC[C@@H](O)CC3)nc12 in your reply.
5.00 to 6.00

Consider the molecule CC(C)c1cnn2c(NCc3ccccc3-c3ccc4ccccc4n3)nc(NC[C@H]3CCNC[C@@H]3O)nc12 . State its measured pIC50.
≥ 6.00

Using known records, supply pIC50 for CC(C)c1cnn2c(NCc3ccccc3-c3nccc4cc(NC(=O)CCCN(C)C)ccc34)nc(NC[C@H]3CCNC[C@@H]3O)nc12
< 5.00

Recall and state the measured pIC50 for CC(C)c1cnn2c(NCc3ccccc3-c3ccc4ccccc4n3)nc(N3CCNC[C@H]3CO)nc12 .
≥ 6.00

====

- tgt: CDK2/Cyclin A (Homo sapiens, UniProt P24941)
- Construct: purchased Invitrogen PV6290
- assay notes: Enzymatic assay for CDK2 (FRET based LANCE Ultra kinase assay)
- Assay type: biochemical
- stated conditions: read-out: CDK2 enzymatic activity (IC50 range)
Reported IC50 values for a set of compounds

Here's what some known entries look like.
Return IC50 (reported value) for this compound: Cc1cccc(-c2cc(C(C)(C)O)nn2C)c1CNc1nc(N2CCC(N)CC2)nc2c(C(C)C)cnn12
> 1000 nM

Look up IC50 of CC(C)c1cnn2c(NCc3ccccc3-n3cccn3)nc(-c3ccc(Cl)c(C4CCNCC4)c3)nc12 and report it.
> 1000 nM

Recall and state the measured IC50 for CC(C)c1cnn2c(NCc3ccccc3-c3ccc4ccccc4n3)cc(OCC3CCNCC3)nc12 .
> 1000 nM

Could you now consider this next compound?
Give the measured IC50 for CC(C)c1cnn2c(NCc3cccc(-c4cc5ccccc5[nH]4)c3)nc(N3CCC(N)CC3)nc12
100 to 1000 nM

====

- tgt: CDK1/Cyclin B (Homo sapiens, UniProt P06493)
- Construct: purchased Invitrogen PR4768C
- Sequence (P06493 whole entry): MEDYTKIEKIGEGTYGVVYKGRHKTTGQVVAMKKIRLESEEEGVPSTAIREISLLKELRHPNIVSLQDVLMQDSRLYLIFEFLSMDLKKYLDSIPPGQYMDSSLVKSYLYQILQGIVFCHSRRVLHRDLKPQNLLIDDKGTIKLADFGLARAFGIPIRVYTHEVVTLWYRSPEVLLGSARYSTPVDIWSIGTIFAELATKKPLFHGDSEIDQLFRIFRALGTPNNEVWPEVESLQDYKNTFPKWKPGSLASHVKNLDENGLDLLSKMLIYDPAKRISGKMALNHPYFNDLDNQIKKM
- Sequence (P14635 whole entry partner): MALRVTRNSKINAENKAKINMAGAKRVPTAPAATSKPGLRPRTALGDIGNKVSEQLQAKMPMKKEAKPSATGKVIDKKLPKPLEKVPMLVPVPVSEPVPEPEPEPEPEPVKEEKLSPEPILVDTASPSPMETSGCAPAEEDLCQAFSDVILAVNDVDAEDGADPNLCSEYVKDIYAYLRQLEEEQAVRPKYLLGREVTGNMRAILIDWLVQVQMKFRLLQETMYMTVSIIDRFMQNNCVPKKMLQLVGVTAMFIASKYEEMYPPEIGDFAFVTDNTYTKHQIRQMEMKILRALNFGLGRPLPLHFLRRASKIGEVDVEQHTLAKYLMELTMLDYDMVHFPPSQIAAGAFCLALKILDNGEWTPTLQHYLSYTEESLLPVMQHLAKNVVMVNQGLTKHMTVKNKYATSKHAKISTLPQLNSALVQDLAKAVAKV
- assay notes: Enzymatic assay for CDK1 (FRET based LANCE Ultra kinase assay)
- Assay type: biochemical
- stated conditions: read-out: CDK1 enzymatic activity (IC50 range)
The entries below are paired with their reported IC50.

For orientation, consider the following solved cases.
Report measured IC50; entry is CC(C)c1cnn2c(NCc3ccccc3-n3cccn3)nc(N3CCN(C)CC3)nc12
> 1000 nM

State, in one line, measured IC50 of Cc1cccc(-c2cc(C(C)(C)O)nn2C)c1CNc1nc(N2CCC(N)CC2)nc2c(C(C)C)cnn12
> 1000 nM

Annotate the compound Cc1cccc(-c2cc3ccccc3[nH]2)c1CNc1nc(N2CCC(N)CC2)nc2c(C(C)C)cnn12 with its measured IC50.
> 1000 nM

Others:
Tell me IC50 reported for CC(C)c1cnn2c(N[C@@H](C)c3ccccc3-n3cc(N4CCNCC4)cn3)nc(N3CCC(N)CC3)nc12
> 1000 nM

Name the recorded IC50 of the compound listed here: CC(C)c1cnn2c(NCc3ccccc3-n3cccn3)nc(Nc3cccc(OC4CCNC4)c3)nc12 (racemic)
> 1000 nM

Find the measured IC50 of CC(C)c1cnn2c(NCc3ccccc3-c3nc4ccccc4[nH]3)nc(N3CCC(N)CC3)nc12 and report it.
100 to 1000 nM

Give the reported value of IC50 for this record: Cc1ccc(CNc2nc(N3CCC(N)CC3)nc3c(C(C)C)cnn23)cc1-n1cccn1
> 1000 nM

Determine its reported IC50: CC(C)c1cnn2c(NCc3cccc4cnn(C)c34)nc(N3CCC(N)CC3)nc12
100 to 1000 nM

Look up IC50 of CC(C)c1cnn2c(NCc3ccccc3-n3ccc(C(=O)NC4CCOCC4)n3)nc(N3CCC(N)CC3)nc12 and report it.
100 to 1000 nM

Given CC(C)c1cnn2c(NCc3ccccc3-n3cc(N4CCN(C)CC4)cn3)nc(N3CCC(N)CC3)nc12 , respond with its IC50.
100 to 1000 nM

Supply IC50 value. Item: CC(C)c1cnn2c(NCc3ccccc3-c3cn4c(n3)CCCC4)nc(N3CCC(N)CC3)nc12
> 1000 nM

Write down IC50 measured for item CC(C)c1cnn2c(N[C@H](C)c3ccccc3-c3cc4ccccc4[nH]3)nc(N3CCC(N)CC3)nc12
> 1000 nM

Supply reported IC50 belonging to this compound: NC1CCN(c2nc(NCc3ccccc3-n3cccn3)n3ncc(Br)c3n2)CC1
100 to 1000 nM

====

- Tested on: A2780
- assay notes: Cellular A2780 viability assay (CellTiter-Glo, 72 hours)
- Format: cell-based
- stated conditions: Homo sapiens
pIC50: −log10 of the molar value.
quantity measured: pIC50

Past entries and their recorded results:
Provide pIC50 value for the following compound: CCN1CC[C@H](CNc2nc(NCc3ccccc3-c3ccc4ccccc4n3)n3ncc(C(C)C)c3n2)[C@@H](O)C1
≥ 6.00

Complete the entry with pIC50 for CC(C)c1cnn2c(NCc3ccccc3-c3ccc4cc(C(C)(C)O)ccc4n3)nc(N3CCC(O)(CN)CC3)nc12
≥ 6.00

Specify measured pIC50 for CC(C)c1cnn2c(NCc3c(Cl)cccc3N3CC[C@H](C(C)(C)O)C3)nc(N3CCC(N)CC3)nc12 .
5.00 to 6.00

State its pIC50 for this compound: CC(C)c1cnn2c(NCc3ccccc3-c3ccc4ccccc4n3)nc(NC3CCC(O)CC3)nc12 (centres unmarked)
5.00 to 6.00

Fill in reported pIC50 for this entry: CC(C)c1cnn2c(NCc3ccccc3-c3nccc4cc(NC(=O)CCCN(C)C)ccc34)nc(NC[C@H]3CCNC[C@@H]3O)nc12
5.00 to 6.00

Give the measured pIC50 for CC(C)c1cnn2c(NCc3ccccc3-c3ccc4ccccc4n3)nc(N[C@H]3CC[C@@H](O)CC3)nc12
≥ 6.00

Respond only with pIC50 recorded for CC(C)c1cnn2c(NCc3ccccc3-c3cc4ccccc4[nH]3)nc(N3CCC(N)CC3)nc12
≥ 6.00

Now for the compound whose pIC50 we want.
Identify the reported pIC50 for the following entry. CC(C)c1cnn2c(NCc3c(Cl)cccc3-c3ccc4ccccc4n3)nc(N3CCCC[C@H]3CO)nc12
< 5.00

====

- tgt: CDK5/p25 (Homo sapiens, UniProt Q00535)
- Construct: purchased Invitrogen PR8543B
- Sequence (Q00535 whole entry): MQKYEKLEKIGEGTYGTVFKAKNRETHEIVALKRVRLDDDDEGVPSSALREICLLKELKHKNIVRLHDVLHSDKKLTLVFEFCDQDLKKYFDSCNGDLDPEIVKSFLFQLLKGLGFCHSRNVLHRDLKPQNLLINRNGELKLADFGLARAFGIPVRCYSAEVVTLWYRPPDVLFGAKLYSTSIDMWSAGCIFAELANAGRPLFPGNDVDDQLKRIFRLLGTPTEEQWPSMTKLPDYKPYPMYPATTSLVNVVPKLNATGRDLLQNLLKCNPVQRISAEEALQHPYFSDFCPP
- Sequence (Q15078 99-307 partner limits assumed): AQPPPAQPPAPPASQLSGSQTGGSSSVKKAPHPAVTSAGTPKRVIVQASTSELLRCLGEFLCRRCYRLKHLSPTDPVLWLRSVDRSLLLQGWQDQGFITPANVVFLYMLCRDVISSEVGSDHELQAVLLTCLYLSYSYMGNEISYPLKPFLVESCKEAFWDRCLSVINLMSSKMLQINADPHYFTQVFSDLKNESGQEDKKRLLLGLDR
- assay notes: Enzymatic assay for CDK5 (FRET based LANCE Ultra kinase assay)
- Format: biochemical
- stated conditions: read-out: CDK5 enzymatic activity (IC50 range)
Listing of entries alongside the reported IC50.

Solved entries:
Kindly indicate its recorded IC50. Item: CC1CCN(c2cnn(-c3cccc(Cl)c3CNc3nc(N4CCC(N)CC4)nc4c(C(C)C)cnn34)c2)CC1
> 1000 nM

Report measured IC50; entry is CC(C)c1cnn2c(NCc3ccccc3-n3ccc(C(C)(C)O)n3)nc(NCC3(O)CCNCC3)nc12
100 to 1000 nM

Provide only the value of recorded IC50 for CC(C)c1cnn2c(NCc3ccccc3-n3cc4cc(C(=O)N5CCCC5)ccc4n3)nc(N3CCC(N)CC3)nc12
100 to 1000 nM

Using the record for CC(C)c1cnn2c(NCc3ccccc3-c3cnc4ccccc4n3)nc(N3CCC(N)CC3)nc12 , state its measured IC50.
< 100 nM

Give recorded IC50. CC(C)c1cnn2c(NCc3ccccc3-n3ccc(C(C)(C)O)n3)nc(N3CCC(CN)CC3)nc12
> 1000 nM

Others:
Report measured IC50; entry is CC(C)c1cnn2c(NCc3ccccc3-c3ncc4ccccc4n3)nc(N3CCC(N)CC3)nc12
100 to 1000 nM
